- ASSAY_COMMENT: chemical genetic growth profiling, strain panel (AID 1159580);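 note: tested at 20 µM; growth read once vehicle control cultures reached saturation at 30 °C; 1 = growth at the plate median or of vehicle wells; lower values mean less growth of the strain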
- RECORDED_CONDITIONS: S. cerevisiae deletion strains, growth OD, locus YKL048C, strain ELM1, stronger effect = lower value
In all, about 5,500 compounds went through this assay and about 2,000 (36%) were called active. Not shown: some 18% with an inconclusive outcome. The list shows a part of the results.
RECORDED_ENDPOINT: normalized growth
Number only, no unit.

Challenge: Fill in: normalized growth of `CCn1nc(C)cc1-c1nnc(Sc2ncc([N+](=O)[O-])s2)n1C` is ___
Response given: 0.99

Challenge: Which measured normalized growth value corresponds to `N#Cc1c(Br)cnn1Cc1cc(C(F)(F)F)cc(C(F)(F)F)c1` ?
Response given: 0.957

Challenge: I have this compound here, Cc1cc(C(=O)N(c2ccccc2)C(C)C2CC2)c(Cl)cc1Cl (centres undefined) , and I need its recorded normalized growth.
Response given: 0.966

---
Challenge: Look up normalized growth: `Cc1ccc(C(=O)O/N=C(/N)CSc2ncccc2C(F)(F)F)cc1`
Response given: 0.991

Challenge: For `Clc1ccccc1N/N=C\Cc1nnnn1-c1ccccc1` , what is its reported normalized growth?
Response given: 0.92

Challenge: Please give the measured normalized growth for this compound: `O=C1Nc2ccccc2/C1=N/N=C\c1cc(Br)cc(Br)c1O`
Response given: 0.303

Challenge: Need normalized growth of COc1ccc(C2CC(c3ccccc3)=Nc3ccccc3S2)cc1OC (centres undefined) , thanks.
Response given: 0.968

Challenge: Which normalized growth value is on record for CCC(C)Cn1c(Sc2ncc([N+](=O)[O-])s2)n[nH]c1=O (centres undefined) ?
Response given: 0.963

Challenge: Quick one: normalized growth for `O=C(CSCc1nc(-c2ccc(Cl)cc2)cs1)N/N=C\c1cccs1` ?
Response given: 0.944

Challenge: Tell me the measured normalized growth of `C#Cc1cccc(N=Cc2cc(Cl)cc(Br)c2O)c1` , please.
Response given: 0.129

Challenge: Fill in the blank: the reported normalized growth of `CC(C)c1ccc(-c2cc(=O)c3ccccc3o2)cc1` is ____.
Response given: 0.797

Challenge: Which normalized growth reading was recorded for the compound `Cc1ccc2c(c1)CCCN2CC(=O)N(c1ccccc1)C1CCCCC1` ?
Response given: 0.945

Challenge: Bench note: what normalized growth did `Cc1ccc(C(O)(c2ccccc2)c2ccccc2)c2ccccc12` show?
Response given: 0.965

Challenge: Data request, read-out normalized growth, for `N#CCC(=O)c1cccc(CSc2ccccc2Cl)c1`
Response given: 0.937

----------
- ASSAY_COMMENT: chemical genetic growth profiling, strain panel (AID 1159580);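 note: tested at 20 µM; growth read once vehicle control cultures reached saturation at 30 °C; 1 = growth at the plate median or of vehicle wells; lower values mean less growth of the strain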
- RECORDED_CONDITIONS: S. cerevisiae deletion strains, growth OD, locus YLR330W, strain CHS5, stronger effect = lower value
Screen size: about 5,500 compounds; about 2,000 (36%) were called active. Not shown: some 18% with an inconclusive outcome. The list shows a part of the results.
RECORDED_ENDPOINT: normalized growth
# output: bare number, no unit

Challenge: For the molecule shown here, `COc1c(O)cccc1O` , give the reported normalized growth.
Response given: 1.01

Challenge: Find the recorded normalized growth belonging to `CN(C)CCC=C1c2ccccc2CCc2ccccc21` and report it.
Response given: 1.01

Challenge: What measured normalized growth goes with `COc1c(O)cc2c(-c3ccccc3)cc(=O)oc2c1OC` ?
Response given: 0.985

Challenge: For the molecule shown here, `O=C1CC[C@]23C=CC(=O)NCCCCNCCCNC(=O)/C=C/c4ccc(c2c4)O[C@@H]3C1` , give the reported normalized growth.
Response given: 1.01

Challenge: Look up normalized growth: `COc1cc2cc[n+]3cc4c(OC)c(OC)ccc4cc3c2cc1OC`
Response given: 0.977

Challenge: # normalized growth lookup, item `CC(=O)N(O)CCCCCNC(=O)CCC(=O)N(O)CCCCCNC(=O)CCC(=O)N(O)CCCCCN`
Response given: 1.01

API: the following record is the query input.
Challenge: Quick check: normalized growth of `COc1cccc2c1cc([N+](=O)[O-])c1c(C(=O)O)cc3c(c12)OCO3` ?
Response given: 1.02

The values you see were collected from PubChem BioAssay AID1159580.
